test system: Chordin-like protein 2 (CHRDL2); assay: CHRDL2 small-molecule binders, primary screen, biochemical, small-molecule microarray, 635 nm fluorescence (AID 1126); conditions: small-molecule microarray binding, fluorescence 635 nm; higher = more signal;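 further: printed compound slides probed with Chrdl2 protein at 4 µg/mL for 1 h at 4 C; score merges 667 nm emission intensity with signal to noise over three replicate slides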
Grouping rule (composite z-score): lowest (below -0.4), middle (-0.4 to below 0.07), highest (0.07 or more)

Task: Category of `CCCC[C@H]1OB(O)C[C@H]2C1=C(COC)C[C@H]1C(=O)N(Cc3ccccc3)C(=O)[C@H]12` :
Result: middle

Task: Category of `O=C1C[C@@](C(=O)NCCN2CCOCC2)(c2ccc([N+](=O)[O-])cc2)[C@@H](c2ccc(CO)cc2)N1C1CCCCC1` :
Result: highest

Task: Category of `COC(=O)[C@@]1(Cc2ccccc2CN=[N+]=[N-])N=C(c2ccc(OCCCO)cc2)O[C@H]1c1ccccc1N=[N+]=[N-]` :
Result: middle

Task: Category of CC1CC/C=C\[C@H]2OC34C=CCN(Cn5nnc6ccccc65)C(=O)[C@H]3N(C(C)CO)C(=O)[C@@H]4C2C(=O)O1 (some centres undefined) :
Result: lowest

Task: Category of C=CCC(OC(C)=O)[C@@H]1[C@@H](N(Cc2cccc3ccccc23)C(=O)Cc2ccc(F)cc2)c2cc(OCCCO)ccc2N1C(=O)Cc1ccc2ccccc2c1 (some centres undefined) :
Result: middle

Task: Category of `NC(=O)[C@H]1[C@@H]2C(=O)O[C@@H](c3ccccc3)[C@@H](c3ccccc3)N2[C@@H](c2ccc(O)cc2)[C@]12C(=O)Nc1ccc(C#CCCO)cc12` :
Result: lowest

Task: Category of `C=C(CCCC)/C(=C/C[C@@H](OC(=O)c1ccncc1)c1cccc(OCCO)c1)c1cc(C(=O)OC)ccc1OC` :
Result: highest

Task: Category of `CO[C@H]1COC(=O)[C@@H](OCc2ccccc2)C=C[C@H](C)[C@@H](OC)COC(=O)[C@H](OCc2ccccc2)C=C[C@@H]1C` :
Result: lowest

Task: Category of `C=CCNC(=O)[C@H]1[C@@H]2C(=O)O[C@@H](c3ccccc3)[C@@H](c3ccccc3)N2[C@@H](c2ccccc2OCCO)[C@]12C(=O)N(C(=O)OCCOC)c1ccc(C#CCNC(N)=O)cc12` :
Result: middle

Task: Category of `CC(C)NC(=O)[C@@]1(Cc2ccccc2I)c2ccccc2C(=O)N(C2CCCCC2)[C@H]1c1ccc(CO)cc1` :
Result: highest

Task: Category of `CO[C@@H]1COC(=O)[C@H](C)NC(=O)CC=C[C@@H](C)[C@H](OC)COC(=O)[C@H](C)NC(=O)CC=C[C@H]1C` :
Result: highest

Task: Category of `CCCC=C(CCC)[C@@H](NS(=O)(=O)c1ccc(-c2ccccc2)cc1)c1ccc(C(=O)OC)cc1` :
Result: lowest

Task: Category of `CCOC(=O)C1=C[C@@H](c2ccccc2)N(S(=O)(=O)c2ccc(C)cc2)[C@H]1c1ccc(F)cc1` :
Result: middle
